These data points were gathered from PubChem BioAssay AID652138.

Target: Perilipin-5 (Homo sapiens) + 1-acylglycerol-3-phosphate O-acyltransferase ABHD5 (Homo sapiens) (UniProt Q00G26+Q8WTS1)
Sequence (Q00G26 whole entry, looked up): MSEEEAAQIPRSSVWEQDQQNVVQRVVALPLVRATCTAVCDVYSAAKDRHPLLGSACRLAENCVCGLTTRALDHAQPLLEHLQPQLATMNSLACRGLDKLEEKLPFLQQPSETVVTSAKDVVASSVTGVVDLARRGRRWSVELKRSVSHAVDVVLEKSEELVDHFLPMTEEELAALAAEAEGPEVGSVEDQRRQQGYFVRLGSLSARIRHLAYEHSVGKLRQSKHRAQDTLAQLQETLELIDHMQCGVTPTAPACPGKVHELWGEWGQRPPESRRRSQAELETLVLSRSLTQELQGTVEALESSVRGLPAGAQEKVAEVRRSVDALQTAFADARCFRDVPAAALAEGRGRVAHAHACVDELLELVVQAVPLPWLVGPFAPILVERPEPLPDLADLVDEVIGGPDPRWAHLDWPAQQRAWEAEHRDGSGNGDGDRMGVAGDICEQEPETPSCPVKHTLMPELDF
Sequence (Q8WTS1 whole entry, looked up): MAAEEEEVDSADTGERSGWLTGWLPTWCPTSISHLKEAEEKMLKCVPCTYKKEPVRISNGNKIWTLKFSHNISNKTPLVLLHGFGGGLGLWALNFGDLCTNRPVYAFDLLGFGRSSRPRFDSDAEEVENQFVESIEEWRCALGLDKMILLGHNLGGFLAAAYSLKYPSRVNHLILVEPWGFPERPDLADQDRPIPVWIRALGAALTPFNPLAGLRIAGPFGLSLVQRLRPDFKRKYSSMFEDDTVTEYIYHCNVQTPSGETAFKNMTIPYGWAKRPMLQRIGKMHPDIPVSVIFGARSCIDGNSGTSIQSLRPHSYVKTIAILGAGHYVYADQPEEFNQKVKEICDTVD
Assay: inhibition of ABHD5 association with MLDP – biochemical, luminescence, dose response, round 3, late-stage follow-up (AID 652138)
Conditions: split G. princeps luciferase complementation, 4 h
The source made the active and inactive calls.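 The calls were made as follows: active = IC50 at or below 10 µM, the dose giving half-maximal inhibition of the luminescence signal; inactive = IC50 above 10 µM.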
Allowed answers: TRUE (active), FALSE (inactive)

- query smiles: "CCCCCCCNC(=O)Nc1ccc2c(c1)N(C)C(=O)c1ccccc1S2"
  qualitative label: "TRUE"

Q: # outcome recorded in this test, key = CCCCNC(=O)Nc1ccc2c(c1)N(C)C(=O)c1ccccc1S2
A: FALSE

Q: # outcome recorded in this test, key = CCCCCCNC(=O)Nc1ccc2c(c1)N(C)C(=O)c1ccccc1S2
A: TRUE

Q: # outcome recorded in this test, key = Cc1ccc2c(CC(=O)N3CCN(S(=O)(=O)c4ccc5c(c4)OCCO5)CC3)coc2c1
A: FALSE

Q: # outcome recorded in this test, key = CN1C(=O)c2ccccc2Sc2ccc(NC(=O)NCCCc3ccccc3)cc21
A: TRUE

Q: # outcome recorded in this test, key = CCCCCNC(=O)Nc1ccc2c(c1)N(C)C(=O)c1ccccc1S2
A: TRUE
